# experiment: Blocking experiment 2: effect of vesamicol pretreatment on radiotracer accumulation
# Format: in vivo, male Wistar rats
# setup-conditions: rat, liver, iv, 2 uCi, Group 2: (dl)vesamicol.HCl 1.01 umol/Kg pretreatment, 30 min postradiotracer; read-out: Accumulation after pretreatment, liver
experimental-endpoint: tissue uptake at 0.5 h

INSERT INTO results (compound, experimental_endpoint, obs_value) VALUES
  ('O[C@@H]1CCN(Cc2cccc([125I])c2)C[C@H]1N1CCC(c2ccccc2)CC1 (single isomer, unassigned) [(-)-[^125 I]12h]', 'tissue uptake at 0.5 h', '1.89 %ID/g');

====

# experiment: Tissue distribution of radiotracer in rats
# Assay type: in vivo, male Wistar rats
# setup-conditions: rat, liver; 30 min, iv; read-out: Tissue distribution, liver
experimental-endpoint: tissue uptake at 0.5 h (%ID/g)

INSERT INTO results (compound, experimental_endpoint, obs_value) VALUES
  ('O[C@@H]1CCN(Cc2cccc([125I])c2)C[C@H]1N1CCC(c2ccccc2)CC1 (single isomer, unassigned) [(-)-[^125 I]12h]', 'tissue uptake at 0.5 h', 2.35);
